Test system: USA400 MW2
Experiment: Checkerboard MIC assay with oxacillin
Assay type: cell-based, Staphylococcus aureus
Settings: oxacillin with TarO inhibitor at maximum sensitization concentration, USA400 MW2
Readout name: MIC of β-lactam, combined
The number alone won't do; follow it with the unit.

Sample answers from the record:
Compound	Readout name	Endpoint result
C[C@H]1[C@@H](c2cc(C(F)(F)F)cc(C(F)(F)F)c2)OC(=O)N1C(=O)CCn1ccc(=O)c2cccnc21 [Compound 18a]	MIC of β-lactam, combined	0.25 µg/mL
C[C@H]1[C@@H](c2cc(C(F)(F)F)cc(C(F)(F)F)c2)OC(=O)N1C(=O)Cc1cccc2ccccc12 [Tarocin A, reference compound]	MIC of β-lactam, combined	1 µg/mL

Notebook: pull reported MIC of β-lactam, combined for USA400 MW2, entry COc1cc(C(F)(F)F)cc([C@H]2OC(=O)N(C(=O)CCn3ccc(=O)c4cccnc43)[C@H]2C)n1 [Compound 18b]
0.5 µg/mL

Notebook: pull reported MIC of β-lactam, combined for USA400 MW2, entry `C[C@H]1[C@@H](c2cc(C(F)(F)F)cc(C(F)(F)F)c2)OC(=O)N1C(=O)CCN1CCCc2ccccc21`
1 µg/mL

---

System: HS663
Assay: Checkerboard MIC assay with imipenem
Assay type: cell-based, Staphylococcus aureus
Settings: HS663/imipenem, at maximum sensitization concentration
Readout name: FICI

Compound	Endpoint result
C[C@H]1[C@@H](c2cc(C(F)(F)F)cc(C(F)(F)F)c2)OC(=O)N1C(=O)CCN1CCCc2ccccc21	<0.02
C[C@H]1[C@@H](c2cc(C(F)(F)F)cc(C(F)(F)F)c2)OC(=O)N1C(=O)CCn1ccc(=O)c2cccnc21 [Compound 18a]	<0.15
COc1cc(C(F)(F)F)cc([C@H]2OC(=O)N(C(=O)CCn3ccc(=O)c4cccnc43)[C@H]2C)n1 [Compound 18b]	<0.08

Notebook: pull reported FICI for HS663, entry C[C@H]1[C@@H](c2cc(C(F)(F)F)cc(C(F)(F)F)c2)OC(=O)N1C(=O)Cc1cccc2ccccc12 [Tarocin A, reference compound]
<0.14

---

Assay: Solubility of compounds in water (HPLC)
Format: physicochemical
Conditions: pure water
Method: Weigh the sample in a 10 mL volumetric flask, dissolve in methanol up to the mark to obtain a reference solution of known concentration. Inject 5 μL into the HPLC, detect peak area at 254 nm wavelength. […] The solubility of the compound in water […] is calculated according to the following formula: CS = CA × AB/AA (CA represents the concentration of the reference solution, AA represents the peak area of the reference solution, and AB represents the saturated peak area of the sample).
Readout name: solubility

Give its solubility value. Item: C[C@H]1[C@@H](c2cc(C(F)(F)F)cc(C(F)(F)F)c2)OC(=O)N1C(=O)CCn1ccc(=O)c2cccnc21 [Compound 18a]
20 µg/mL

---

Entries and their measured MIC of β-lactam, combined follow.
Test system: HS663
Test: Checkerboard MIC assay with imipenem
Format: cell-based, Staphylococcus aureus
Details: imipenem with TarO inhibitor at minimum sensitization concentration, HS663
Give the quantity in µg/mL, number only.

Molecule	Readout name	Result units	Endpoint result
C[C@H]1[C@@H](c2cc(C(F)(F)F)cc(C(F)(F)F)c2)OC(=O)N1C(=O)Cc1cccc2ccccc12 [Tarocin A, reference compound]	MIC of β-lactam, combined	µg/mL	32

Notebook: pull reported MIC of β-lactam, combined for HS663, entry C[C@H]1[C@@H](c2cc(C(F)(F)F)cc(C(F)(F)F)c2)OC(=O)N1C(=O)CCn1ccc(=O)c2cccnc21 [Compound 18a]
32

Notebook: pull reported MIC of β-lactam, combined for HS663, entry COc1cc(C(F)(F)F)cc([C@H]2OC(=O)N(C(=O)CCn3ccc(=O)c4cccnc43)[C@H]2C)n1 [Compound 18b]
32

Notebook: pull reported MIC of β-lactam, combined for HS663, entry `C[C@H]1[C@@H](c2cc(C(F)(F)F)cc(C(F)(F)F)c2)OC(=O)N1C(=O)CCN1CCCc2ccccc21`
8

---

Test: Cytotoxicity assay (Sulforhodamine B)
Format: cell-based
Details: human, NCI-H1373 cells (human lung adenocarcinoma cell line); NCI-H1373, 72 h
Readout name: IC50 at 72 h

Molecule	IC50 at 72 h
C[C@H]1[C@@H](c2cc(C(F)(F)F)cc(C(F)(F)F)c2)OC(=O)N1C(=O)Cc1cccc2ccccc12 [Tarocin A, reference compound]	> 20 µM
C[C@H]1[C@@H](c2cc(C(F)(F)F)cc(C(F)(F)F)c2)OC(=O)N1C(=O)CCN1CCCc2ccccc21	> 20 µM

Okay, now this molecule:
Give its IC50 at 72 h value. Item: COc1cc(C(F)(F)F)cc([C@H]2OC(=O)N(C(=O)CCn3ccc(=O)c4cccnc43)[C@H]2C)n1 [Compound 18b]
> 20 µM

---

Entries and their measured IC50 at 72 h follow.
Experiment: Cytotoxicity assay (Sulforhodamine B)
Type: cell-based
Settings: human, HCT-116 cells (human colon cancer cell line); HCT-116, 72 h

Sample answers from the record:
Compound	Endpoint result
C[C@H]1[C@@H](c2cc(C(F)(F)F)cc(C(F)(F)F)c2)OC(=O)N1C(=O)Cc1cccc2ccccc12 [Tarocin A, reference compound]	> 20 µM
C[C@H]1[C@@H](c2cc(C(F)(F)F)cc(C(F)(F)F)c2)OC(=O)N1C(=O)CCN1CCCc2ccccc21	> 20 µM

Give its IC50 at 72 h value. Item: COc1cc(C(F)(F)F)cc([C@H]2OC(=O)N(C(=O)CCn3ccc(=O)c4cccnc43)[C@H]2C)n1 [Compound 18b]
> 20 µM

---

Entries and their measured Minimum sensitization concentration follow.
System: USA300 LAC
Test: Checkerboard MIC assay with oxacillin
Assay type: cell-based, Staphylococcus aureus
Conditions: USA300 LAC/oxacillin; test range 0.03–32 μg/mL
Give the quantity in µg/mL, number only.

Sample answers from the record:
Compound	Minimum sensitization concentration, µg/mL
C[C@H]1[C@@H](c2cc(C(F)(F)F)cc(C(F)(F)F)c2)OC(=O)N1C(=O)CCn1ccc(=O)c2ccccc21 [Compound 17a]	4
C[C@H]1[C@@H](c2cc(C(F)(F)F)cc(C(F)(F)F)c2)OC(=O)N1C(=O)CCN1CCOc2ccccc21 [Compound 11]	0.03

Okay, now this compound:
Give its Minimum sensitization concentration value. Item: C[C@H]1[C@@H](c2cc(C(F)(F)F)cc(C(F)(F)F)c2)OC(=O)N1C(=O)CCc1cccc2c1OCCC2=O [Compound 14]
0.25

---

Test: Cytotoxicity assay (Sulforhodamine B)
Assay type: cell-based
Details: human, Capan-1 cells (human pancreatic cancer cell line); Capan-1, 72 h
Entries and their measured IC50 at 72 h follow.

Give its IC50 at 72 h value. Item: C[C@H]1[C@@H](c2cc(C(F)(F)F)cc(C(F)(F)F)c2)OC(=O)N1C(=O)CCN1CCCc2ccccc21 [Compound 10]
> 20 µM

Give its IC50 at 72 h value. Item: C[C@H]1[C@@H](c2cc(C(F)(F)F)cc(C(F)(F)F)c2)OC(=O)N1C(=O)Cc1cccc2ccccc12 [Tarocin A, reference compound]
> 20 µM

Give its IC50 at 72 h value. Item: COc1cc(C(F)(F)F)cc([C@H]2OC(=O)N(C(=O)CCn3ccc(=O)c4cccnc43)[C@H]2C)n1 [Compound 18b]
> 20 µM

---

Assay: Cytotoxicity assay (Sulforhodamine B)
Type: cell-based
Conditions: human; HCT-116, 72 h
Readout name: IC50 at 72 h

Give its IC50 at 72 h value. Item: C[C@H]1[C@@H](c2cc(C(F)(F)F)cc(C(F)(F)F)c2)OC(=O)N1C(=O)CCn1ccc(=O)c2cccnc21 [Compound 18a]
> 20 µM

---

Molecular target: TarO (Staphylococcus aureus)
Details: relative inhibition rate against the wild-type strain, OD600 at 20 h; n.a. = IC50 cannot be calculated within the test range
Readout name: IC50 (µM)
Give the quantity in µM, number only.

Sample answers from the record:
Compound	IC50, µM
C[C@H]1[C@@H](c2cc(F)cc(C(F)(F)F)c2)OC(=O)N1C(=O)CCn1ccc(=O)c2ccccc21 [Compound 17c]	27.8
C[C@H]1[C@@H](c2cc(C(F)(F)F)cc(C(F)(F)F)c2)OC(=O)N1C(=O)CCn1ccc(=O)c2ccccc21 [Compound 17a]	4.08
C[C@H]1[C@@H](c2cc(C(F)(F)F)cc(C(F)(F)F)c2)OC(=O)N1C(=O)CCN1CCS(=O)(=O)c2ccccc21 [Compound 9]	6.32
C[C@H]1[C@@H](c2cc(C(F)(F)F)cc(C(F)(F)F)c2)OC(=O)N1C(=O)OCc1cccc2ccccc12 [Compound 1]	0.161
C[C@H]1[C@@H](c2cc(C(F)(F)F)cc(C(F)(F)F)c2)OC(=O)N1C(=O)CCN1CCC(=O)c2ccccc21 [Compound 12]	5.05

Give its IC50 value. Item: C[C@H]1[C@@H](c2cccc(C(F)(F)F)c2)OC(=O)N1C(=O)CCn1ccc(=O)c2ccccc21 [Compound 17d]
30.2

Give its IC50 value. Item: C[C@H]1[C@@H](c2cc(C(F)(F)F)cc(C(F)(F)F)c2)OC(=O)N1C(=O)CCc1cccc2c1OCCC2=O [Compound 14]
4.04

Give its IC50 value. Item: C[C@H]1[C@@H](c2cc(C(F)(F)F)cc(C(F)(F)F)c2)OC(=O)N1C(=O)Cc1cccc2ccccc12 [Tarocin A, reference compound]
9.7

Give its IC50 value. Item: COc1cc(C(F)(F)F)cc([C@H]2OC(=O)N(C(=O)CCn3ccc(=O)c4cccnc43)[C@H]2C)n1 [Compound 18b]
12.3

Give its IC50 value. Item: C[C@H]1[C@@H](c2cc(C(F)(F)F)cc(C(F)(F)F)c2)OC(=O)N1C(=O)CCn1ccc(=O)c2cccnc21 [Compound 18a]
3.66

Give its IC50 value. Item: C[C@H]1[C@@H](c2cc(C(F)(F)F)cc(C(F)(F)F)c2)OC(=O)N1C(=O)CCN1CCOc2ccccc21 [Compound 11]
1.99

Give its IC50 value. Item: C[C@H]1[C@@H](c2cc(C(F)(F)F)cc(C(F)(F)F)c2)OC(=O)N1C(=O)CCc1cccc2c1OCC/C2=N\O [Compound 23]
7.54
